For reference, Emax measured on LPA4 (Homo sapiens):
assay.endpoint: Emax (%)

INSERT INTO assay_data (given_smiles, measured_target, assay_endpoint, endpoint_result) VALUES
  ('CCCCCCc1ccccc1CCCCCCC(=O)O[C@@H]1CCCO[C@H]1COP(O)(O)=S', 'LPA4 (Homo sapiens)', 'Emax', 18),
  ('CCCCCCCCCCCCCCCC(=O)N1CCC[C@H]1COP(O)(O)=S', 'LPA4 (Homo sapiens)', 'Emax', 19),
  ('CCCCCCc1ccc(CCCCCCC(=O)O[C@@H]2CCCO[C@H]2COP(O)(O)=S)cc1', 'LPA4 (Homo sapiens)', 'Emax', 23),
  ('CCCCCCCC/C=C\CCCCCCCC(=O)N1CCC[C@H]1COP(O)(O)=S', 'LPA4 (Homo sapiens)', 'Emax', 16),
  ('CCCCCCCCCCCCCCCC(=O)O[C@@H]1CCCO[C@H]1COP(O)(O)=S', 'LPA4 (Homo sapiens)', 'Emax', 21);

====

molecular target: LPA4 (Homo sapiens, UniProt Q99677)
Sequence (Q99677 whole entry): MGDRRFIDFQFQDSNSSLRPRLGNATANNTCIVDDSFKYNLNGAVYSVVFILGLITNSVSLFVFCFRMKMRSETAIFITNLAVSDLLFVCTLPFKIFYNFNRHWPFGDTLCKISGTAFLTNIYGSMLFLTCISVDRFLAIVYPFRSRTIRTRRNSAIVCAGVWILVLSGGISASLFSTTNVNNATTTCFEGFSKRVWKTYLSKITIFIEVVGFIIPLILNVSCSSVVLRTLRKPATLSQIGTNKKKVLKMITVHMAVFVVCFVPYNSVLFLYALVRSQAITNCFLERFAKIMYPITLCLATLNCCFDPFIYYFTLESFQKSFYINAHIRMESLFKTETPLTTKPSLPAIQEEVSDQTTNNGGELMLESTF
Here the recorded Emax is given for each entry.
assay.endpoint: Emax (%)

INSERT INTO assay_data (given_smiles, measured_target, endpoint_result) VALUES
  ('CCCCCCc1cccc(CCCCCCC(=O)O[C@@H]2CCCO[C@H]2COP(O)(O)=S)c1', 'LPA4 (Homo sapiens, UniProt Q99677)', 22),
  ('CCCCCCCC/C=C/CCCCCCCC(=O)O[C@@H]1CCCO[C@H]1COP(O)(O)=S', 'LPA4 (Homo sapiens, UniProt Q99677)', 23),
  ('CCCCCCCCCCCCCCCCO[C@@H]1CCCO[C@H]1COP(O)(O)=S', 'LPA4 (Homo sapiens, UniProt Q99677)', 6.4);

====

Here the recorded pEC50 is given for each entry.
target: LPA2 (Homo sapiens); test: TGFα shedding assay, LPA2; conditions: EC50, HEK293 cells, human LPA2 + AP-TGFα + Gαq/s, 1 h 37°C
Sequence (Q9HBW0 whole entry): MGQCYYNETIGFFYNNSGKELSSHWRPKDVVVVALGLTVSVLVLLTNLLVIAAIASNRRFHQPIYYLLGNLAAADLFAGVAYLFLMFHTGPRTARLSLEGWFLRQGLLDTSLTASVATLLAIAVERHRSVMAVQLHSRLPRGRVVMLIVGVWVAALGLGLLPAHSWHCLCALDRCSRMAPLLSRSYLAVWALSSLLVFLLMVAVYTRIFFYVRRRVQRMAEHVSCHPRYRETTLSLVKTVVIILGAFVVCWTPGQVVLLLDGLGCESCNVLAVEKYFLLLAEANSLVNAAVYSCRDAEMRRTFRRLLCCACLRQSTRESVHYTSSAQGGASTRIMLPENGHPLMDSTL
pEC50: −log10 of the molar value.
assay.endpoint: pEC50

INSERT INTO results (given_smiles, measured_target, assay_endpoint, endpoint_result) VALUES
  ('CCCCCCCCCCCCCCCC(=O)N1CCC[C@H]1COP(O)(O)=S', 'LPA2 (Homo sapiens)', 'pEC50', 6.20),
  ('CCCCCCCC/C=C\CCCCCCCC(=O)N1CCC[C@H]1COP(O)(O)=S', 'LPA2 (Homo sapiens)', 'pEC50', 5.80),
  ('CCCCCCCCCCCCCCCCO[C@@H]1CCCO[C@H]1COP(O)(O)=S', 'LPA2 (Homo sapiens)', 'pEC50', 6.00);
